Reported melting point values for a set of molecules

Molecule | melting point / °C
NC(=O)c1ccc([N+](=O)[O-])cc1 [p-nitrobenzamide] | 201
c1ccc2c(c1)Sc1ccccc1S2 | 159
Cc1ccc(C)c(C)c1C | -6
CC#CCO | -2
Oc1ccc(I)cc1 | 93
OCc1ccc(CO)cc1 | 119
O=C1c2ccccc2C(=O)N1CBr [N-(bromomethyl)phthalimide] | 147
CCCCC1C(=O)N(c2ccccc2)N(c2ccccc2)C1=O [phenylbutazone] | 105
CCCCN(CCCC)CCCN | -70
O=C(O)C(Cl)Cl | 10
CC(C)(C)c1ccc2oc(-c3ccc(-c4nc5cc(C(C)(C)C)ccc5o4)s3)nc2c1 | 201
C#C[C@]1(O)CC[C@H]2[C@@H]3CCc4cc(O)ccc4[C@H]3CC[C@@]21C [17alpha-ethynylestradiol] | 144
CCC(C)C(C)(COC(N)=O)COC(N)=O (stereo unspecified) [mebutamate] | 77
c1ccc2c(c1)Oc1ccccc1S2 | 59.5
Nc1ccc(Cl)cc1N | 72
O=C(O)c1cccc([N+](=O)[O-])c1 [m-nitrobenzoic_acid] | 142
CC(=O)c1cccc(C#N)c1 | 99
CCCCS [1-butanethiol] | -116
OB(O)c1c(F)cc(F)c(F)c1F | 127
C[C@]12CCC(=O)CC1CCC1=C2CC[C@@H]2C(=O)CC[C@@H]12 (stereo partly specified) | 138
CCCC#N | -112
COC(=O)c1ccc(O)cc1 [methyl-p-hydroxybenzoate] | 131
COC(=O)c1cc(OC)c(OC)c(OC)c1 [methyl_3,4,5-trimethoxybenzoate] | 84
COc1cccc(C(C)=O)c1 | -7
Cc1cc(Cl)cc(C=O)c1O [5-chloro-2-hydroxy-3-methylbenzaldehyde] | 59
O=C(c1ccccc1)C(O)c1ccccc1 (stereo unspecified) | 137
C(=N\c1ccccc1Nc1ccccc1/N=C/c1ccccc1)/c1ccccc1 | 103
CC(=O)OCC(COC(C)=O)OC(C)=O [glycerol triacetate] | 3
NC(=O)c1ccccc1N [2-aminobenzamide] | 112
Oc1ccc(Br)cc1Br | 40
O=c1ccn([C@@H]2O[C@@H](CO)[C@H](O)[C@H]2O)c(=O)[nH]1 | 165
Nc1ccc(I)cc1Cl | 70
CCCCCCCCCCCCCC(=O)O | 55.1
C1CCCC1 | -94
COC(=O)CCC(C)C1CCC2C3C(O)C(O)C4CCCCC4(C)C3CCC12C (stereo unspecified) [methyl 6,7-dihydroxycholan-24-oate] | 105
OB(O)c1c(Cl)cccc1Cl | 152
C#CCCO | -63
[2H]c1c([2H])c([2H])c(-c2c([2H])c([2H])c(-c3c([2H])c([2H])c([2H])c([2H])c3[2H])c([2H])c2[2H])c([2H])c1[2H] | 213
Cc1c(N(C)C)c(=O)n(-c2ccccc2)n1C [4-(dimethylamino)antipyrine] | 107
CC1=CCC(C(C)(C)O)CC1 (stereo unspecified) | 32
CCOC(=O)C=C1SC(N2CCCCC2)C(=O)N1CC (stereo unspecified) | 86

----------
Response field label takes condition met when melting point is strictly below 40 °C and condition not met in all other cases.

Molecule | Label Class
Oc1ccc(Br)cc1-c1cc[nH]n1 | condition not met
CC(C)c1ccc(Br)cc1 | condition met
c1ccc([SiH](c2ccccc2)c2ccccc2)cc1 | condition not met
CCCC[C@H](NC(=O)OCc1ccccc1)C(=O)O | condition not met
O=[N+]([O-])c1cccc(O)c1 [m-nitrophenol] | condition not met
NNC(=O)CC(=O)NN [malonic acid dihydrazide] | condition not met
OB(O)c1ccc(Cl)nc1 | condition not met
C=C(Cl)CCl | condition met
CCCCCCCI | condition met
CCOC(=O)c1ccc(B(O)O)cc1 [4-(ethoxycarbonyl)benzeneboronic acid] | condition not met

Every entry's value here was drawn from the Bradley open melting point set (2014).
